Consider the following compounds; for each one, report its log10(Ki).
- TARGET: α1B Human Adrenergic Receptor (Homo sapiens)
- Construct: The entire coding region of α1B (1563 bp); expressed in transfected cells
- Sequence (P35368 whole entry): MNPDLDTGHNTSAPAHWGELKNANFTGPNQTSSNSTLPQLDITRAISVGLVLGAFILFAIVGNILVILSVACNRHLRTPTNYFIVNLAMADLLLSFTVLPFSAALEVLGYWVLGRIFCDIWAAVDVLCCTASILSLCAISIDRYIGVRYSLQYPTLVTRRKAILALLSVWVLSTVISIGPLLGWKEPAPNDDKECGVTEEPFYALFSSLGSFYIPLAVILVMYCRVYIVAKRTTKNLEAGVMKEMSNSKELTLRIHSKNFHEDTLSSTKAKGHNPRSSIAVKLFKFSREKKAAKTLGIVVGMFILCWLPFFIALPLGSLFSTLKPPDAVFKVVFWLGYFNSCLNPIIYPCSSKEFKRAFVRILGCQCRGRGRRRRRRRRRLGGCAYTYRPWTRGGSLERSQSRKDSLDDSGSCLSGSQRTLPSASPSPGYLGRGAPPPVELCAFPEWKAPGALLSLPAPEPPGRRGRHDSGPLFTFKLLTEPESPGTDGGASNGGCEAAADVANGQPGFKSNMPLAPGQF
- EXPERIMENTAL PROTOCOL: Radioligand binding, [3H]prazosin, cloned human α1B adrenergic receptor
- APPLIED CONDITIONS: cloned human receptor, LM(tk-) cell membranes, mean, read-out: PKi alpha-1 1b (converted)
// units: nM (pre-log); metric: Ki; scale: log10

# annotated cases, reported log10(Ki) shown
1. CCOC(=O)C1(c2ccccc2)CCN(CCCNC(=O)C2=C(COCCN=[N+]=[N-])NC(CC)=C(C(=O)OC)C2c2ccc([N+](=O)[O-])cc2)CC1 (stereo not drawn) [Example 195]; 2.11
2. CCOC(=O)C1(c2ccccc2)CCN(CCCNC(=O)C2=C(COCCN)NC(CC)=C(C(=O)O)C2c2ccc([N+](=O)[O-])cc2)CC1 (stereo not drawn) [Example 196]; 3.56
3. CCOC(=O)C1(c2ccccc2)CCN(CCCNC(=O)C2=C(COCCN)NC(CC)=C(C(=O)OC)C2c2ccc([N+](=O)[O-])cc2)CC1 (stereo not drawn) [Example 197]; 2.17
4. CC1=C(C(N)=O)C(c2ccc([N+](=O)[O-])cc2)C(C(=O)NCCCN2CCC(c3ccccc3)(c3ccccc3)CC2)=C(COCCN)N1 (stereo not drawn) [Example 217]; 2.65

Each compound below has a recorded value; state its log10(Ki).
1. CCOC(=O)C1(c2ccccc2)CCN(CCCNC(=O)C2=C(COCCN=[N+]=[N-])NC(CC)=C(C(N)=O)C2c2ccc([N+](=O)[O-])cc2)CC1 (stereo not drawn) [Example 190]
2. CCC1=C(C(=O)O)C(c2ccc([N+](=O)[O-])cc2)C(C(=O)NCCCN2CCC(c3ccccc3)CC2)=C(COC)N1 (stereo not drawn) [Example 223]
3. CCNC(=O)C1=C(CC)NC(COCCN)=C(C(=O)NCCCN2CCC(C(=O)OCC)(c3ccccc3)CC2)C1c1ccc([N+](=O)[O-])cc1 (stereo not drawn) [Example 192]

(A)
1: 2.85; 2: 2.24; 3: 3.27

src = patent US6608086B2
